Field: microsomal CLint at 2 μM. Provide a value for each of the compounds that follow.
test: Liver microsomes stability with NADPH, rat; settings: rat, microsomes
Report as a plain number; the unit µL/min/mg is understood.

Task item: Which microsomal CLint at 2 μM value belongs to COc1ccc2[nH]cc(CCN(C)C)c2c1 [Compound 5-MeO-DMT, 5-methoxy-N,N-dimethyltryptamine, reference compound] ?
Reply: 61

Task item: Sample `[2H]C([2H])(c1c[nH]c2ccccc12)[C@H]1CCCN1` — what was its microsomal CLint at 2 μM?
Reply: 31.5

Task item: Name the recorded microsomal CLint at 2 μM for `[2H]C([2H])([2H])Oc1ccc2[nH]cc(C[C@H]3CCCN3C([2H])([2H])[2H])c2c1` .
Reply: 29.5

Task item: Please report the recorded microsomal CLint at 2 μM for `[2H]C([2H])(c1c[nH]c2ccccc12)[C@H]1CCCN1C` .
Reply: 46.3

Task item: What value of microsomal CLint at 2 μM has been reported for the following compound? `[2H]C([2H])(c1c[nH]c2ccc(OC)cc12)[C@H]1CCCN1`
Reply: 29.5

Task item: Using the record for `[2H]C([2H])([2H])Oc1ccc2[nH]cc(C[C@H]3CCCN3)c2c1` , report its microsomal CLint at 2 μM.
Reply: 4.33

Task item: Item `[2H]C([2H])(c1c[nH]c2ccccc12)[C@H]1CCCN1C([2H])([2H])[2H]` has what recorded microsomal CLint at 2 μM?
Reply: 37.6

Task item: Need microsomal CLint at 2 μM of `[2H]C([2H])(c1c[nH]c2ccc(OC)cc12)[C@H]1CCCN1C` , thanks.
Reply: 29

Task item: microsomal CLint at 2 μM lookup needed for `[2H]C([2H])([2H])Oc1ccc2[nH]cc(C([2H])([2H])[C@H]3CCCN3C([2H])([2H])[2H])c2c1` , thanks.
Reply: 29

Task item: Bench note: what microsomal CLint at 2 μM did CN(C)CCc1c[nH]c2ccccc12 [DMT, N,N-dimethyltryptamine, reference compound] show?
Reply: 61

* * *

assay: In vivo pharmacokinetics in male Sprague Dawley rats; set-up: species or system rat; conditions: male, Sprague Dawley, rat, plasma, sc, 0.992 mg/kg, 0.992 mg/kg s.c., Mean ± SD, read-out: AUC0-inf
readoutKind: AUC(0-inf) (ng·h/mL)
Report the value in ng·h/mL with no unit label.

Task item: Find the recorded AUC(0-inf) belonging to `[2H]C([2H])(c1c[nH]c2ccccc12)[C@H]1CCCN1C([2H])([2H])[2H]` and report it.
Reply: 143

* * *

test: In vivo pharmacokinetics in male C57BL/6 mice; parameters: species or system mouse; conditions: male, C57BL/6, mouse, plasma, sc, 9.92 mg/kg, 9.92 mg/kg s.c., individual animals M16-M18, read-out: AUC0-inf
readoutKind: AUC(0-inf)
For clarity, give the value followed by its unit.

Task item: Sample `[2H]C([2H])(c1c[nH]c2ccccc12)[C@H]1CCCN1C([2H])([2H])[2H]` — what was its AUC(0-inf)?
Reply: 2890 ng·h/mL

* * *

experiment: In vivo pharmacokinetics in male C57BL/6 mice; set-up: species or system mouse; details: male, C57BL/6, mouse, plasma, iv, 9.92 mg/kg, 9.92 mg/kg i.v., Mean ± SD
readoutKind: clearance (mL/min/kg)
Report the value in mL/min/kg with no unit label.

Task item: clearance lookup needed for [2H]C([2H])(c1c[nH]c2ccccc12)[C@H]1CCCN1C([2H])([2H])[2H] [I-B-1] , thanks.
Reply: 41.7

* * *

experiment: In vivo pharmacokinetics in male C57BL/6 mice; parameters: species or system mouse; settings: male, C57BL/6, mouse, plasma, iv, 9.92 mg/kg, 9.92 mg/kg i.v., individual animals M10-M12, read-out: C0
readoutKind: C0 (ng/mL)
Unit ng/mL implied. Number only.

Task item: Suppose we examine the molecule `[2H]C([2H])(c1c[nH]c2ccccc12)[C@H]1CCCN1C([2H])([2H])[2H]` ; what C0 value has been reported?
Reply: 4910

* * *

assay: In vivo pharmacokinetics in male C57BL/6 mice; parameters: species or system mouse; details: male, C57BL/6, mouse, plasma, iv, 9.92 mg/kg, 9.92 mg/kg i.v., individual animals M10-M12, read-out: Vss
readoutKind: Vd (L/kg)
Express it in L/kg; write the number only.

Task item: So what's the measured Vd for this one? `[2H]C([2H])(c1c[nH]c2ccccc12)[C@H]1CCCN1C([2H])([2H])[2H]`
Reply: 5.83

* * *

Reported values: IC50 for human 5-HT2A (Homo sapiens, UniProt P28223), one per item.

Task item: Requested read-out IC50, target or system human 5-HT2A (Homo sapiens, UniProt P28223), entry [2H]C([2H])(c1c[nH]c2ccc(OC)cc12)[C@H]1CCCN1C [I-B-10]
Reply: < 500 nM

Task item: Give recorded IC50 with human 5-HT2A (Homo sapiens, UniProt P28223) for the following molecule: [2H]C([2H])([2H])Oc1ccc2[nH]cc(C[C@H]3CCCN3C([2H])([2H])[2H])c2c1 [I-B-11]
Sequence (P28223 whole entry): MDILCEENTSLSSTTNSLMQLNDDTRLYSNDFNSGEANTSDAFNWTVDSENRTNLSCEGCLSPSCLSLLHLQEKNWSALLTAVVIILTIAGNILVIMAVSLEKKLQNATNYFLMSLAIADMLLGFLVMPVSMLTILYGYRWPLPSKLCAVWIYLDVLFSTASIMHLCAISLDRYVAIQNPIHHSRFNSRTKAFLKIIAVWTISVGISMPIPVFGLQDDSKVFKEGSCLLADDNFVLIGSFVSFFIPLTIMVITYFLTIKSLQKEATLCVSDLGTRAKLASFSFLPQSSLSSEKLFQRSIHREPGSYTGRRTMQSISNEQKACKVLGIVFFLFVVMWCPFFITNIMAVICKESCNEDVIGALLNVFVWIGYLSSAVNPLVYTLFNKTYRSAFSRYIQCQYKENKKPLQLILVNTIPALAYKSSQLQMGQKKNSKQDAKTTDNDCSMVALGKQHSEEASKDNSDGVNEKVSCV
Reply: < 500 nM

Task item: Please provide the recorded IC50 for [2H]C([2H])(c1c[nH]c2ccc(OC)cc12)[C@H]1CCCN1 [I-B-16] , tested on human 5-HT2A (Homo sapiens, UniProt P28223).
Reply: < 500 nM

Task item: Fill in the recorded IC50 for this molecule, with human 5-HT2A (Homo sapiens, UniProt P28223) as test system: [2H]C([2H])(c1c[nH]c2ccc(OC)cc12)[C@H]1CCCN1C([2H])([2H])[2H] [I-B-13]
Reply: < 500 nM

* * *

test: In vivo pharmacokinetics in male C57BL/6 mice; design: species or system mouse; details: male, C57BL/6, mouse, plasma, po, 9.92 mg/kg, 9.92 mg/kg p.o., individual animals M13-M15, read-out: AUC0-tlast
readoutKind: AUC(0-t) (ng·h/mL)
Just the number in ng·h/mL, nothing appended.

Task item: What measured AUC(0-t) goes with `[2H]C([2H])(c1c[nH]c2ccccc12)[C@H]1CCCN1C([2H])([2H])[2H]` ?
Reply: 1460

* * *

experiment: Liver microsomes stability with NADPH, mouse; settings: male, mouse, microsomes
readoutKind: half-life at 2 μM (h)
Just the number in h, nothing appended.

Task item: Find the recorded half-life at 2 μM belonging to CN(C)CCc1c[nH]c2ccccc12 [DMT, N,N-dimethyltryptamine, reference compound] and report it.
Reply: 0.842

Task item: Give the measured half-life at 2 μM of `[2H]C([2H])([2H])Oc1ccc2[nH]cc(C[C@H]3CCCN3)c2c1` .
Reply: 8.15

Task item: Endpoint output: half-life at 2 μM of `[2H]C([2H])(c1c[nH]c2ccccc12)[C@H]1CCCN1C` . Value?
Reply: 1.02

* * *

Can you tell me microsomal CLint at 2 μM for the items I'm about to list?
experiment: Liver microsomes stability with NADPH, mouse; details: male, mouse, microsomes
Expressed in µL/min/mg, but write only the number.

Task item: Please report the recorded microsomal CLint at 2 μM for `[2H]C([2H])(c1c[nH]c2ccccc12)[C@H]1CCCN1C([2H])([2H])[2H]` .
Reply: 19.9

Task item: So what's the measured microsomal CLint at 2 μM for this one? `[2H]C([2H])([2H])Oc1ccc2[nH]cc(C[C@H]3CCCN3C([2H])([2H])[2H])c2c1`
Reply: 40.6

Task item: I'd like to know its microsomal CLint at 2 μM. The compound in question is `[2H]C([2H])([2H])Oc1ccc2[nH]cc(C([2H])([2H])[C@H]3CCCN3C([2H])([2H])[2H])c2c1`
Reply: 38.4

Task item: Name the recorded microsomal CLint at 2 μM for `[2H]C([2H])(c1c[nH]c2ccc(OC)cc12)[C@H]1CCCN1C` .
Reply: 38.4
